# Tested System: Receptor-type tyrosine-protein phosphatase C (Homo sapiens)
# Assay Comment: Compound was evaluated for inhibitory activity against CD45 protein tyrosine phosphatase at a concentration of 200 uM; no activity
Activity calls are given as the source filed them. No cut-off for these calls is given here.
Measured Endpoint: Activity

>>> print(df.to_string())
                        structure_as_smiles    result
0  NC(=O)[C@H](Cc1ccc(OC(=O)CCl)cc1)NC(=O)OCc1ccccc1  inactive
1  NC(=O)[C@H](Cc1ccc(OP(=O)(O)CCl)cc1)NC(=O)OCc1ccccc1  inactive
2  NC(=O)[C@H](Cc1ccc(O)cc1)NC(=O)OCc1ccccc1  inactive

----------
For each entry below, report its k cat value.
# Tested System: Receptor-type tyrosine-protein phosphatase C (Homo sapiens) (UniProt P08575)
# Sequence (whole entry): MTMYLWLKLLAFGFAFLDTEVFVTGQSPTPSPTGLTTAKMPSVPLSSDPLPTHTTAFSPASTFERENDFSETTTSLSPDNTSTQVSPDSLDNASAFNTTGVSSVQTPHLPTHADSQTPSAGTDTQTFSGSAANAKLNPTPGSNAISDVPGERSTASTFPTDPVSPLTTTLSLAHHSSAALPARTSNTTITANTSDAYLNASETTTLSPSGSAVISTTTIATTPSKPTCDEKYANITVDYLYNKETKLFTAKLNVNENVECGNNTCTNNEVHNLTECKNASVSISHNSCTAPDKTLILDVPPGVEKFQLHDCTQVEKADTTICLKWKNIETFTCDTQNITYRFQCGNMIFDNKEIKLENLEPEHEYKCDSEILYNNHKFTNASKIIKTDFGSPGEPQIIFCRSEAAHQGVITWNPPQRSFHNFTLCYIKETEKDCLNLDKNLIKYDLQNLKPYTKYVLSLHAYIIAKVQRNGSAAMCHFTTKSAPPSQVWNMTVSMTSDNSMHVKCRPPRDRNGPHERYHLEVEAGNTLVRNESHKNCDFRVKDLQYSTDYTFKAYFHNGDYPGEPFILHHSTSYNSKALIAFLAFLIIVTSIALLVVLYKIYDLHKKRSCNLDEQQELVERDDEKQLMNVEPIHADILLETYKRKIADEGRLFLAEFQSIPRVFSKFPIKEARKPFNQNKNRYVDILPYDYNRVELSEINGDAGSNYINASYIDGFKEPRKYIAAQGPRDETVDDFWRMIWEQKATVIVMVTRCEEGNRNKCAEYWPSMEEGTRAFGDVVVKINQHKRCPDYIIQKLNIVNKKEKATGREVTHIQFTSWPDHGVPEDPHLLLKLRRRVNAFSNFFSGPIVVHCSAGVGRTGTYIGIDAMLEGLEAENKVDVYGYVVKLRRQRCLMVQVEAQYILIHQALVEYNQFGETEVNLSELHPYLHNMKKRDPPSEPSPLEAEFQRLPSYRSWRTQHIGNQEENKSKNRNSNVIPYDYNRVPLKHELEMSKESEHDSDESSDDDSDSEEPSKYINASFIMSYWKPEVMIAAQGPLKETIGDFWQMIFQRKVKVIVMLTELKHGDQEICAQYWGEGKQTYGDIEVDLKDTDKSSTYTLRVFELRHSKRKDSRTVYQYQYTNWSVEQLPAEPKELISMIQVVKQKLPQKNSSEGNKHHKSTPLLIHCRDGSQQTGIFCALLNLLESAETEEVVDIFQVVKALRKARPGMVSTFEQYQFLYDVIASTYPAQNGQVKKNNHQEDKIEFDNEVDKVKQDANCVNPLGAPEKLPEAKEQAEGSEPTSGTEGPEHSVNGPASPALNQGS
# Assay Comment: Kinetic constant for CD45 protein tyrosine phosphatase inhibition was evaluated using malachite green assay
Non-standard residues stand in square brackets, D forms with d. Residues, ends and D or L forms follow the SMILES beside them. pY = N[C@@H](Cc1ccc(OP(=O)(O)O)cc1)C(=O)O
Numbers only, in s⁻¹.

Answered examples (7):
Compound	Measurement Unit	k cat
CC(=O)N[C@@H](CCC(N)=O)C(=O)N[C@@H](Cc1ccc(OP(=O)(O)O)cc1)C(=O)N[C@@H](CCC(N)=O)C(=O)N1CCC[C@H]1C(=O)NCC(=O)N[C@@H](CCC(N)=O)C(=O)N[C@@H](CC(N)=O)C(=O)N[C@@H](CC(C)C)C(N)=O (Ac-Q[pY]QPGQNL-NH2)	s⁻¹	4.82
O=[N+]([O-])c1ccc(OP(=O)(O)O)cc1	s⁻¹	3.95
CC(=O)N[C@@H](Cc1ccc(OP(=O)(O)O)cc1)C(N)=O	s⁻¹	3.95
CC(=O)N[C@@H](CCC(=O)O)C(=O)N1CCC[C@H]1C(=O)N[C@@H](CCC(N)=O)C(=O)N[C@@H](Cc1ccc(OP(=O)(O)O)cc1)C(=O)N[C@@H](CCC(N)=O)C(=O)N1CCC[C@H]1C(=O)NCC(=O)N[C@@H](CCC(N)=O)C(=O)N[C@@H](CC(N)=O)C(=O)N[C@@H](CC(C)C)C(N)=O (Ac-EPQ[pY]QPGQNL-NH2)	s⁻¹	4.22
CC(=O)N1CCC[C@H]1C(=O)N[C@@H](CCC(N)=O)C(=O)N[C@@H](Cc1ccc(OP(=O)(O)O)cc1)C(=O)N[C@@H](CCC(N)=O)C(=O)N1CCC[C@@H]1C(N)=O	s⁻¹	3.95
CC(=O)N[C@@H](C)C(=O)N[C@H](C(=O)N[C@@H](CCC(=O)O)C(=O)N1CCC[C@H]1C(=O)N[C@@H](CCC(N)=O)C(=O)N[C@@H](Cc1ccc(OP(=O)(O)O)cc1)C(=O)N[C@@H](CCC(N)=O)C(=O)N1CCC[C@H]1C(=O)NCC(=O)N[C@@H](CCC(N)=O)C(=O)N[C@@H](CC(N)=O)C(=O)N[C@@H](CC(C)C)C(N)=O)[C@@H](C)O (Ac-ATEPQ[pY]QPGQNL-NH2)	s⁻¹	4.93
CC(=O)N[C@@H](CCC(N)=O)C(=O)N[C@@H](Cc1ccc(OP(=O)(O)O)cc1)C(=O)N[C@@H](CCC(N)=O)C(=O)N1CCC[C@@H]1C(N)=O	s⁻¹	3.95

Next, consider the following compound.
Asked: Write down k cat measured for item CC(=O)N1CCC[C@H]1C(=O)N[C@@H](CCC(N)=O)C(=O)N[C@@H](Cc1ccc(OP(=O)(O)O)cc1)C(=O)N[C@@H](CCC(N)=O)C(N)=O (Ac-PQ[pY]Q-NH2)
Given back: 3.95

Cited source: ChEMBL document CHEMBL1128649
